molecular target: Nitric oxide synthase 3 (Homo sapiens, UniProt P29474); test: Inhibition of human eNOS expressed in HEK293 cells assessed as inhibition A23187 induced nitric oxide production incubated for 24 hrs measured after 18 hrs of […] challenge using 2,3-diaminonaphthalene by fluorescence assay
Sequence (P29474 whole entry): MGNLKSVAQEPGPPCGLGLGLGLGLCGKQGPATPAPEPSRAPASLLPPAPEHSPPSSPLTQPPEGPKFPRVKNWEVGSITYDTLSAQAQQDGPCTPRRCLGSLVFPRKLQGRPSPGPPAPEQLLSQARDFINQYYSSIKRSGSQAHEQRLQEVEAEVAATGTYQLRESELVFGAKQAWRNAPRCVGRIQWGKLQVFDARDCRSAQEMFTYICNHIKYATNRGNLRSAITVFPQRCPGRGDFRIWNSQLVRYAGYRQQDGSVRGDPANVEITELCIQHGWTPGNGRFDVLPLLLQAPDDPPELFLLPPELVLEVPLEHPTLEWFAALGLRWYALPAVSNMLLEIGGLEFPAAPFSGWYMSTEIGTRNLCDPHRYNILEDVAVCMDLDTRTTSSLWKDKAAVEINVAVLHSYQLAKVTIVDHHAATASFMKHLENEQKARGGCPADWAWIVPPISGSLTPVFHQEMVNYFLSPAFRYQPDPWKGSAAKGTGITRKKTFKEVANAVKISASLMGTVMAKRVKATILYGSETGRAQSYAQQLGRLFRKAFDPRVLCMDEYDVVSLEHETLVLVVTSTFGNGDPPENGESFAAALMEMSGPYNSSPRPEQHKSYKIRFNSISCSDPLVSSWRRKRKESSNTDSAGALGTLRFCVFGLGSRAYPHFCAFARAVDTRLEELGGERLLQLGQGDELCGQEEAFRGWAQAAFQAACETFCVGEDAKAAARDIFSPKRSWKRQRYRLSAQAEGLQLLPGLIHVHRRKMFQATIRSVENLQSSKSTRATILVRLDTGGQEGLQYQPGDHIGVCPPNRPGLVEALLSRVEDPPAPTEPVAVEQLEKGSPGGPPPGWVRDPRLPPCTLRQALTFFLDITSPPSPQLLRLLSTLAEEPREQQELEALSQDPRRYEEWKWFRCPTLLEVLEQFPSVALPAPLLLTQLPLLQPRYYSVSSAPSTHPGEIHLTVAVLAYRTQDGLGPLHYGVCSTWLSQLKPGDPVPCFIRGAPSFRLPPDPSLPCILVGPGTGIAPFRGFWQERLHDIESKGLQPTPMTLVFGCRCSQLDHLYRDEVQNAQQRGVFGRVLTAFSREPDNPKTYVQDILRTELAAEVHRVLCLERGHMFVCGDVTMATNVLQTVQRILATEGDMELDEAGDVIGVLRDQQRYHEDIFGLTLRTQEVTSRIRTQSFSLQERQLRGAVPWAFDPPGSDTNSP
pEC50: −log10 of the molar value.
Threshold check on pEC50: at or above 5 gives fulfilled, strictly below gives not fulfilled.

Previously resolved entries follow.
# structure-notation, assigned-category
records = [
    ("O=c1cc(Cn2c(C3CCC3)nc3c(C(F)(F)F)ccnc32)c2ccc(F)c(F)c2[nH]1", "not fulfilled"),
    ("O=c1cc(Cn2c(C3CCCC3)nc3ccccc32)c2ccc(F)c(F)c2[nH]1", "not fulfilled"),
    ("CN(C)c1ccnc2c1nc(C1CCC1)n2Cc1cc(=O)[nH]c2c(F)c(F)ccc12", "not fulfilled"),
]

Task: Is reported pEC50 greater than or equal to 5 here: O=c1cc(Cn2c(C3CCC3)nc3nccnc32)c2cccc(F)c2[nH]1
Result: not fulfilled

Task: # bool: pEC50 of O=c1cc(Cn2c(C3CCCCC3)nc3ccccc32)c2ccc(F)c(F)c2[nH]1 >= 5
Result: not fulfilled

Task: pEC50 >= 5 for O=c1cc(Cn2c(C3CCCC3)nc3nccnc32)c2ccc(F)c(F)c2[nH]1 ?
Result: not fulfilled

Task: // inclusive: pEC50 at least 5? input: O=c1cc(Cn2c(-c3ccccn3)nc3ccccc32)c2ccc(F)c(F)c2[nH]1
Result: not fulfilled

Task: Given the entry O=c1cc(Cn2c(C3CCC3)nc3ccncc32)c2ccc(F)c(F)c2[nH]1 , answer whether its pEC50 meets or surpasses 5.
Result: not fulfilled

Task: Decide: is the reported value of pEC50 for O=c1cc(Cn2c(C3CCC3)nc3nccnc32)c2ccc(F)c(F)c2[nH]1 equal to or greater than 5?
Result: not fulfilled

Task: Does the compound O=c1cc(Cn2c(C3CCC3)nc3c(Cl)ccnc32)c2ccc(F)c(F)c2[nH]1 have recorded pEC50 that is 5 or more?
Result: not fulfilled

Task: Reported pEC50 reaches at least 5 for Cc1ccnc2c1nc(C1CCC1)n2Cc1cc(=O)[nH]c2c(F)c(F)ccc12 ?
Result: not fulfilled

Task: Exam item: decide whether the reported pEC50 for O=c1cc(Cn2c(-c3cccnc3)nc3ccccc32)c2ccc(F)c(F)c2[nH]1 is at least 5.
Result: not fulfilled
